Each recorded value in this set is attributed to ChEMBL document CHEMBL3217623.

Biological target: Acetylcholinesterase (Torpedo californica, UniProt P04058)
Sequence (P04058 whole entry): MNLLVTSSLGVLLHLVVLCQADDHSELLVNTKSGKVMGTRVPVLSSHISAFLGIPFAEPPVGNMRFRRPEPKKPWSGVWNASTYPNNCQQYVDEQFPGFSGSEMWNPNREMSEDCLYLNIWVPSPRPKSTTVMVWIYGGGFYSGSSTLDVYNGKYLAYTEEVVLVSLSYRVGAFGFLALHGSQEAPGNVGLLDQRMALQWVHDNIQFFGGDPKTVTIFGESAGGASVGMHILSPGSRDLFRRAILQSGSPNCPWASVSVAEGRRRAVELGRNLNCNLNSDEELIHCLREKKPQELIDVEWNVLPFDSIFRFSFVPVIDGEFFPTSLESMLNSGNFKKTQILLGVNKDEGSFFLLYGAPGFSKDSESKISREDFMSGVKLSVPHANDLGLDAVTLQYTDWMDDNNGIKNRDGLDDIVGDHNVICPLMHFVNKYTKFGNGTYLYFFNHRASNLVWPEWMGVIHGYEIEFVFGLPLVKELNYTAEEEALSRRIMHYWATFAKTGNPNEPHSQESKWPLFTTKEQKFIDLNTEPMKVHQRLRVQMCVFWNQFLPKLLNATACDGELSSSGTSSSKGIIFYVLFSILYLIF
Assay: Inhibition of Torpedo californica […] AChE using acetylthiocholine/DTNB as substrate assessed as ROS-induced enzyme inactivation preincubated for 10 mins followed by substrate addition measured every 30 secs for 20 mins in presence of horseradish peroxidase and H2O2
Design: species or system Tetronarce californica
Give measured IC50 for each item. Keep answers brief.
A number alone suffices; assume nM.

Entry `Cc1cccc(Nc2ccccc2C(=O)NCCC(=O)NCCCNc2c3c(nc4ccccc24)CCCC3)c1C` — recorded IC50 = 7.92

Entry `Cc1cccc(Nc2ccccc2C(=O)NCC(=O)NCCCCNc2c3c(nc4cc(Cl)ccc24)CCCC3)c1C` — recorded IC50 = 89.4

Entry `Cc1cccc(Nc2ccccc2C(=O)NCCCCCC(=O)NCCCCNc2c3c(nc4cc(Cl)ccc24)CCCC3)c1C` — recorded IC50 = 0.299

Entry `Cc1cccc(Nc2ccccc2C(=O)NCCCC(=O)NCCCCNc2c3c(nc4cc(Cl)ccc24)CCCC3)c1C` — recorded IC50 = 12.4

Entry `Cc1cccc(Nc2ccccc2C(=O)NCC(=O)NCCCCNc2c3c(nc4ccccc24)CCCC3)c1C` — recorded IC50 = 53.6

Entry `Cc1cccc(Nc2ccccc2C(=O)NCCCCCCCCCCCCNc2c3c(nc4cc(Cl)ccc24)CCCC3)c1C` — recorded IC50 = 16.2

Entry `Cc1cccc(Nc2ccccc2C(=O)NCC(=O)NCCCCCCCNc2c3c(nc4ccccc24)CCCC3)c1C` — recorded IC50 = 15.3

Entry `Cc1cccc(Nc2ccccc2C(=O)NCCCC(=O)NCCCCCCCCNc2c3c(nc4cc(Cl)ccc24)CCCC3)c1C` — recorded IC50 = 6.59

Entry `Cc1cccc(Nc2ccccc2C(=O)NCCCCCCCCNc2c3c(nc4cc(Cl)ccc24)CCCC3)c1C` — recorded IC50 = 1.49

Entry `Cc1cccc(Nc2ccccc2C(=O)NCCCC(=O)NCCCCNc2c3c(nc4ccccc24)CCCC3)c1C` — recorded IC50 = 14.6

Entry `Cc1cccc(Nc2ccccc2C(=O)NCCCCCC(=O)NCCCCCCCCNc2c3c(nc4cc(Cl)ccc24)CCCC3)c1C` — recorded IC50 = 8.67

Entry `Cc1cccc(Nc2ccccc2C(=O)NCC(=O)NCCCCCCNc2c3c(nc4cc(Cl)ccc24)CCCC3)c1C` — recorded IC50 = 3.46

Entry `Cc1cccc(Nc2ccccc2C(=O)NCCCCCCNc2c3c(nc4ccccc24)CCCC3)c1C` — recorded IC50 = 0.129

Entry `Cc1cccc(Nc2ccccc2C(=O)NCCC(=O)NCCCCNc2c3c(nc4cc(Cl)ccc24)CCCC3)c1C` — recorded IC50 = 33

Entry `Cc1cccc(Nc2ccccc2C(=O)NCCCCCC(=O)NCCCCNc2c3c(nc4ccccc24)CCCC3)c1C` — recorded IC50 = 34

Entry `Cc1cccc(Nc2ccccc2C(=O)NCCCC(=O)NCCCCCCCNc2c3c(nc4cc(Cl)ccc24)CCCC3)c1C` — recorded IC50 = 6.55

Entry `Cc1cccc(Nc2ccccc2C(=O)NCC(=O)NCCCCCCNc2c3c(nc4ccccc24)CCCC3)c1C` — recorded IC50 = 54.8
